# TEST TARGET: T1, dog red blood cells (dog)
# T1 construct: also called dog RBC
# ASSAY NAME: FACS, dog RBC
MEASURE NAME: FACS signal

Record 6C12B8/H8 (antibody, V domains shown, mouse IgG1/k from hybridoma; also called 6C12 parental; TPP-3422) VH: RVQLQQSGAELARPGASVKMSCKASGYTFTTYTIHWVKQKTGQGLEWIGYINPSSDYTRYNPKFKDKATLTTDKSSSTAYMKLNSLASDDSAVYYCQTGTRDYWGQGTTLTVSS VL: QIVLTQSPPIMSASPGEKVTMTCSAASSVSYIYWFQQKPGTSPKLWIYSTSTLPSGVPTRFSGSGSGTSYSLTISRMEAEDAATYYCHQRNSFPFTFGSGTKLEIR . Reported FACS signal: 1.18 relative flourescence units

The recorded FACS signal for 1E4A2/F8 (antibody, V domains shown, as m8) VH: QVQLQQSGAELARPGASVKMSCKASGYTFTRYSMHWVKQRPGQGLEWIGYINPGTYYTNYNQKFKDRATLTADKSSSTAYMQLNSLTSEDSAVYYCQTGTRDYWGQGTTLTVSS VL: QIVLTQSPPIMSASPGEKVTITCSAASSVSYIYWFQQKPGTSPKLWIYSTSSLPSGVPTRFSGSGSGTSYSLTISRMEAEDAATYYCHQRSSYPFTFGSGTKLEIR is 1 relative flourescence units

Per the record, 13G7G1/C3 (antibody, V domains shown, as m8; also called TPP-3423) VH: RVQLQQSGAELARPGASVKMSCKASGYTFTNYAMHWVKQRPGQGLEWIGYINPKSDNTNYNQKFKDKATLTTDKSSATAYMQLSSLTSDDSAVYYCQTGTRDYWGQGTTLTVSS VL: HIVLTQSPAIMSASPGEKVTIFCSASSSITYVYWFQQKPGTSPKLWIYSTSSLPSGVPARFSGSGSGTSYSLTISRMEAEDAATYYCHQRNSYPFTFGSGTKLEIK has FACS signal of 1.14 relative flourescence units

Record summary for 7G4E9/A8 (antibody, V domains shown, as m8) VH: QVQLKESGPGLVAPSQSLSITCTVSGFSLTRFGISWVRQPPGKGLEWMGVIWGDGSTDYHSALISRLSITKDNSKSQVFFRLNSLQSDDSATYYCARSFGMDYWGQGTSVTVSS VL: NIMMTQSPSSLAVSAGEKVTMSCKSSQSILNSSNQKNYLAWYQQKPGQSPKLLIYWASTRESGVPDRFTGSGSGTDFTLTISSVQAEDLAVYYCHQYFSSRTFGGGTKLEIK : reported FACS signal = 0.98 relative flourescence units

The reported measurements were obtained from patent US20190359687A1.
